Each entry below carries its reported LD50 at 168 h.
# Method Notes: Acute (orientative) oral toxicity in mice
# Condition Set: mouse, in vivo
Observable: LD50 at 168 h (mg/kg)

| Compound | Observable | Censoring Operator | Reported Measurement |
| --- | --- | --- | --- |
| CN1CC(CC(C#N)C(N)=O)C2=Cc3cccc4[nH]cc(c34)CC21 (centres unmarked) | LD50 at 168 h | = | 600 |
| CN1CC(CCC(N)=O)C2Cc3cccc4[nH]cc(c34)CC21 (centres unmarked) | LD50 at 168 h | > | 800 |
| CN1CC(CCC#N)C2Cc3cccc4[nH]cc(c34)CC21 (centres unmarked) | LD50 at 168 h | = | 600 |
| CCOC(=O)C(C#N)CC1CN(C)C2Cc3c[nH]c4cccc(c34)CC12 (centres unmarked) | LD50 at 168 h | > | 800 |
| CN1CC(CC(C#N)C(N)=O)C2Cc3cccc4[nH]cc(c34)CC21 (centres unmarked) | LD50 at 168 h | > | 1000 |

###

# Test system: spontaneously hypertensive male rats, strain MHS
# Method Notes: Anti-hypertensive activity in spontaneously hypertensive rats (MHS), blood pressure and heart rate measured at the tail
# Type: in vivo, rat (spontaneously hypertensive
# Condition Set: MHS rats, 1 mg/kg os, 1st day, 5 hrs after dose, mean of 4 animals

| Compound | Change in HR, 1st day, 5 hrs after dose [b/min] |
| --- | --- |
| CN1CC(CC(C#N)C(N)=O)C2=Cc3cccc4[nH]cc(c34)CC21 (centres unmarked) | -2 |
| CN1CC(CC(C#N)C(N)=O)C2Cc3cccc4[nH]cc(c34)CC21 (centres unmarked) | -15 |
| CN1CC(CCC#N)C2Cc3cccc4[nH]cc(c34)CC21 (centres unmarked) | -22 |
